FYI, the data here is from paper PMC7383931.

- Tested on: bone-marrow-derived macrophages (BMDM)
- Assay: Alamar blue-based assay, macrophage toxicity
- Type: cell-based, BALB/c mice
- Condition Summary: toxicity against bone marrow derived macrophages
// values below are reported BMDM TC50

CCN(C)c1nc(N(C)C2CCN(C)CC2)nc2ccsc12 [Compound 46] : >50 µM
CN1CCC(N(C)c2nc(N3CCC[C@H]3CC#N)c3sccc3n2)CC1 [Compound 43] : >50 µM
CN1CCC(N(C)c2nc(N(C)CCC#N)c3sccc3n2)CC1 [Compound 1] : >100 µM
CN1CCC(N(C)c2nc(N(C)CCC#N)c3ccccc3n2)CC1 [Compound 3] : >100 µM

Continue with the next compound.
Specify the recorded BMDM TC50 for CN1CCC(N(C)c2nc(N(C)CCC#N)c3ccccc3n2)C1 (centres unmarked) [Compound 26] , system: bone-marrow-derived macrophages (BMDM).
>50 µM

----------
- Test system: bone-marrow-derived macrophages (BMDM)
- Assay: Alamar blue-based assay, macrophage toxicity
- Format: cell-based, BALB/c mice
- Condition Summary: toxicity against bone marrow derived macrophages
// values below are reported BMDM TC50

Recorded BMDM TC50, per entry:
CCN1CCC(N(C)c2nc(N(C)CCC#N)c3sccc3n2)CC1 [Compound 12] : >50 µM
CN(C)CCCN(C)c1nc(N(C)CCC(N)=O)c2sccc2n1 [Compound 36] : >50 µM
CCN(C)c1nc(N(C)C2CCNCC2)nc2ccsc12 [Compound 47] : >50 µM
CCN1CCC(N(C)c2nc(N(C)CCC#N)c3ccccc3n2)CC1 [Compound 24] : >50 µM
CN(CCC#N)c1nc(N(C)C2CCNC2)nc2cc(C(C)(C)C)sc12 (stereo not drawn) [Compound 53] : >40 µM
CN(C)CCCN(C)c1nc(N(C)CCC#N)c2sc(C(C)(C)C)cc2n1 [Compound 51] : 27.3 (24.1-31.0) μM
CN(C)CCCN(C)c1nc(N(C)CCC#N)c2ccccc2n1 [Compound 4] : >100 µM
CN(C)CCCN(C)c1nc(N(C)CCC#N)c2cc(Br)ccc2n1 [Compound 56] : >40 µM

Continue with the next compound.
Give a short answer stating reported BMDM TC50 for COC[C@@H]1CCCN1c1nc(N(C)C2CCN(C)CC2)nc2ccsc12 [Compound 40] .
>40 µM
